Quick list: viability per entry.
assay-comment: reversal of MRP1-mediated doxorubicin resistance, pilot screen, H69AR cells, doxorubicin co-treatment (AID 601)
experimental-setup: H69AR cells, CellTiter-Glo, 72 h; compound alone cytotoxicity; at 10 µM
Express your answer in %, writing the number without its unit.

These solved cases illustrate the format of a correct answer.
In: State its viability for this compound: Cn1c(C(=O)NCC2CCCO2)cc2c(=O)[nH]c3ccccc3c21 (stereo unspecified)
Out: 88.4

In: Please list viability recorded for the compound "CCn1c(SCC(=O)Nc2nc(C)cs2)nnc1-c1ccco1"
Out: 92

In: Respond only with viability recorded for "O=S(=O)(NCCc1ccccc1F)c1cccc(S(=O)(=O)N2CCOCC2)c1"
Out: 97.5

New cases:
In: Consider the compound "COc1ccc(-c2cc(C(F)(F)F)nc(SCC(=O)NCc3ccco3)n2)cc1OC" and give its recorded viability.
Out: 55.2

In: Return reported viability. Input compound: CC(Oc1ccccc1)C(=O)N1CCCc2ccccc21 (stereo unspecified)
Out: 94.3

In: Let me know recorded viability for "O=C(Nc1ccc(F)cc1)c1cccc2c1C(=O)N(Cc1ccccn1)C2" , thanks.
Out: 96
